Target: EGFR^L858R/T790M (Homo sapiens, UniProt P00533, L858R/T790M)
Sequence (P00533 25-1210 T790M/L858R): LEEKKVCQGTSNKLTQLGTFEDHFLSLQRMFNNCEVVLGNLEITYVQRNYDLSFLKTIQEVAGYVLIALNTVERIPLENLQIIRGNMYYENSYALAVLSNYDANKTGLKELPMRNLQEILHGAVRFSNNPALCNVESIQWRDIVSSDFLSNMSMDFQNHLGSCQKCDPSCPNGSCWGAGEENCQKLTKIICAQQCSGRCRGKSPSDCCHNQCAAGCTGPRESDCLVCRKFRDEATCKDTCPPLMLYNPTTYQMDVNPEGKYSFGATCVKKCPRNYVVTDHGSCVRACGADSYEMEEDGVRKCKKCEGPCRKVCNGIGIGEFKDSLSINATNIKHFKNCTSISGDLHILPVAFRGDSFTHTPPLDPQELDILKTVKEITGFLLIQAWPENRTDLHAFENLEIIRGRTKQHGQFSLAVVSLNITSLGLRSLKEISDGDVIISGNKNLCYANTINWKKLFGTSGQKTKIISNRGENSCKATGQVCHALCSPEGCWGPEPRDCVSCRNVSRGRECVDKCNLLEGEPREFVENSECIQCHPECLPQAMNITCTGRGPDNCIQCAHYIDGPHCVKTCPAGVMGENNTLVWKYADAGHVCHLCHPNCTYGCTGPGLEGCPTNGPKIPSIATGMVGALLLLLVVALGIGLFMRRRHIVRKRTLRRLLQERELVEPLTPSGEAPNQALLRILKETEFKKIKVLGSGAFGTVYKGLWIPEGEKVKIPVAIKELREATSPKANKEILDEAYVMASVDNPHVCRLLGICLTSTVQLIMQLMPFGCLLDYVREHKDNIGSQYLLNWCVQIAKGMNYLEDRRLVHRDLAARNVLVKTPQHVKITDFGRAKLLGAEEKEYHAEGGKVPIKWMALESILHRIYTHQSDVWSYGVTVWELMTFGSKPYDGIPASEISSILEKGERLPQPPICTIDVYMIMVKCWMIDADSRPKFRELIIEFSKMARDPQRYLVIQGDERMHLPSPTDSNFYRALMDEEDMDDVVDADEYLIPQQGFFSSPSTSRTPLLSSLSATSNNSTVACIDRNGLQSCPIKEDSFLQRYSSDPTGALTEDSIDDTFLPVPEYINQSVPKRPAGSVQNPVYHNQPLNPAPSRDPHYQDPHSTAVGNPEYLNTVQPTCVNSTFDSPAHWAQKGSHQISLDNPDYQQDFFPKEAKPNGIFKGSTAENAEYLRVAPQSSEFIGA
Test: ELISA-based kinase activity assay
Details: EGFR^L858R/T790M kinase, ELISA, mean ± SD
Property measured: IC50 (nM)
Number only, in nM; omit the unit.

Req: Endpoint output: IC50 of C=CC(=O)Nc1cc(Nc2ncc(Cl)c(Nc3ccc4ccccc4c3)n2)c(OC)cc1N(C)CCN(C)C . Value?
Resp: 0.3

----------
Molecular target: EGFR^exon19del (Homo sapiens, UniProt P00533)
Sequence (P00533 669-1210, stated change not applied): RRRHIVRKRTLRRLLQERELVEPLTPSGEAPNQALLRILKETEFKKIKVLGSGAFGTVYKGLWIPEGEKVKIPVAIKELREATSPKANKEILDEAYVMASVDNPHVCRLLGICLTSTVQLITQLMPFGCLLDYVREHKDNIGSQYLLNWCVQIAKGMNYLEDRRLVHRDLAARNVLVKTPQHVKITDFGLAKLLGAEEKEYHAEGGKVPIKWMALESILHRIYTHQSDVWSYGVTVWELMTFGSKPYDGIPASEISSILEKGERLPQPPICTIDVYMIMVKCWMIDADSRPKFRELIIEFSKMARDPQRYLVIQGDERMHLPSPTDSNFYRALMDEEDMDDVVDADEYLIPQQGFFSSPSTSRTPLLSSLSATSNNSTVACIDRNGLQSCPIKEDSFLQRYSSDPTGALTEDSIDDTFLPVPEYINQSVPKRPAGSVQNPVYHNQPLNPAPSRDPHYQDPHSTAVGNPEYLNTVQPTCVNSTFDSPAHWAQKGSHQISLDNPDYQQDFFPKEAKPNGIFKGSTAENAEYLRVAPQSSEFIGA
Property measured: pIC50
pIC50 is defined as minus the log10 of a concentration measured in mol/L.

Req: Quick check: pIC50 on EGFR^exon19del (Homo sapiens, UniProt P00533), item C=CC(=O)Nc1cc(Nc2ncc(Cl)c(Nc3ccc4ccccc4c3)n2)c(OC)cc1N(C)CCN(C)C [ASK120067] ?
Resp: 9.30

----------
Target: UniProt:P00533
Property measured: IC50 (nM)
Write the number in nM without appending the unit.

Req: # query: IC50 of entry C=CC(=O)Nc1cc(Nc2ncc(Cl)c(Nc3ccc4ccccc4c3)n2)c(OC)cc1N(C)CCN(C)C
Resp: 6

----------
Tested on: LoVo cells
Experiment: SRB cell proliferation assay
Assay type: cell-based
Settings: Homo sapiens, LoVo (EGFR^WT), 72 h
Property measured: IC50
Please provide the amount together with its unit, number first.

Req: Param readout= IC50; system= LoVo cells; entry= C=CC(=O)Nc1cc(Nc2ncc(Cl)c(Nc3ccc4ccccc4c3)n2)c(OC)cc1N(C)CCN(C)C ; returns value.
Resp: 1920 nM
